systemTested: feline FcRn (FCN-F82W3, Acrobiosystems) (feline)
protocolDetails: SPR Carterra, IgG coupled, pH 6.0
resultType: kon (M⁻¹ s⁻¹)
Answer format: numeric, M⁻¹ s⁻¹ implied, no suffix.

Answered examples (2):
anti-NGF feline IgG1a, Fc variant S434Y, S254R (antibody, part only; not given: anti-NGF variable domains, light chain, not shown: another chain or arm of the molecule; small tags and cut ends) Fc: PPEMLGGPSIFIFPPKPKDTLSIRRTPEVTCLVVDLGPDDSDVQITWFVDNTQVYTAKTSPREEQFNSTYRVVSVLPILHQDWLKGKEFKCKVNSKSLPSPIERTISKAKGQPHEPQVYVLPPAQEELSRNKVSVTCLIKSFHPPDIAVEWEITGQPEPENNYRTTPPQLDSDGTYFVYSKLSVDRSHWQRGNTYTCSVSHEALHYHHTQKSLTQSPGK: 2.75e+06
anti-NGF feline IgG1a, Fc variant S428L, D312T (antibody, part only; not given: anti-NGF variable domains, not shown: another chain or arm of the molecule; small tags and cut ends) Fc: PPEMLGGPSIFIFPPKPKDTLSISRTPEVTCLVVDLGPDDSDVQITWFVDNTQVYTAKTSPREEQFNSTYRVVSVLPILHQTWLKGKEFKCKVNSKSLPSPIERTISKAKGQPHEPQVYVLPPAQEELSRNKVSVTCLIKSFHPPDIAVEWEITGQPEPENNYRTTPPQLDSDGTYFVYSKLSVDRSHWQRGNTYTCSVLHEALHSHHTQKSLTQSPGK: 1.01e+06

Specify kon for anti-NGF feline IgG1a, Fc variant S428Y, L309V (antibody, part only; not given: Anti-NGF variable domains, not shown: another chain or arm of the molecule; small tags and cut ends) Fc: PPEMLGGPSIFIFPPKPKDTLSISRTPEVTCLVVDLGPDDSDVQITWFVDNTQVYTAKTSPREEQFNSTYRVVSVLPIVHQDWLKGKEFKCKVNSKSLPSPIERTISKAKGQPHEPQVYVLPPAQEELSRNKVSVTCLIKSFHPPDIAVEWEITGQPEPENNYRTTPPQLDSDGTYFVYSKLSVDRSHWQRGNTYTCSVYHEALHSHHTQKSLTQSPGK and stop.
847000
